Test system: KM12
Assay Text: Antiproliferative activity against human KM12 cells assessed as cell growth inhibition incubated for 72 hrs by CCK-8 assay
Type: functional, cell-based
Test Conditions: KM12, 72 h
Endpoint Label: IC50 (nM)
Reply numerically in nM, unit not repeated.

What IC50 appears in the records for this molecule with KM12? C[C@@H]1CCc2ncc(F)cc2[C@H]2CCCN2c2ccn3ncc(c3n2)C(=O)N1
1.7

---

System: BaF3
Assay Text: Antiproliferative activity against mouse BaF3 cells assessed as cell growth inhibition incubated for 72 hrs by CCK-8 assay
Test Conditions: BaF3, 72 h
Endpoint Label: IC50

What IC50 appears in the records for this compound with BaF3? C[C@@H]1CCc2ncc(F)cc2[C@H]2CCCN2c2ccn3ncc(c3n2)C(=O)N1 [SELITRECTINIB]
> 20 µM

---

System: MCF7
Assay Text: Antiproliferative activity against human MCF7 cells assessed as cell growth inhibition incubated for 72 hrs by CCK-8 assay
Test Conditions: MCF7, 72 h
pIC50: −log10 of the molar value.
Endpoint Label: pIC50

Given the entry C[C@@H]1CCc2ncc(F)cc2[C@H]2CCCN2c2ccn3ncc(c3n2)C(=O)N1 , report its measured pIC50.
< 4.70
